system name: Bromodomain-containing protein 4 (Homo sapiens, UniProt O60885)
assay notes: Inhibition of FAM-labeled ZBA248 binding to recombinant human BRD4 bromodomain 1 (44 to 168 residues) expressed in Rosetta2 Escherichia coli DE3 cells after 30 mins by fluorescence polarization assay
property: Ki (nM)

Solved cases (8 shown):
# entry smiles, Ki, nM
rows = [
    ("COc1cc2c(cc1-c1c(C)noc1C)[nH]c1nc(C)nc(Nc3cc(C4CCC4)nn3C)c12", 2),
    ("COc1cc2c(cc1-c1c(C)noc1C)[nH]c1nc(C)nc(Nc3cc(C)nn3C(C)C)c12", 0.5),
    ("COc1cc2c(cc1-c1c(C)noc1C)[nH]c1nc(C)nc(Nc3cc(C(F)(F)F)nn3C)c12", 3.1),
    ("CCn1nc(C)cc1Nc1nc(C)nc2[nH]c3cc(-c4c(C)noc4C)c(OC)cc3c12", 3.4),
    ("COc1ccc2c(Nc3nc(C)nc4[nH]c5cc(-c6c(C)noc6C)c(OC)cc5c34)nn(C)c2c1", 66.5),
    ("COc1cc2c(cc1-c1c(C)noc1C)[nH]c1nc(C)nc(Nc3nn(C)c4cccc(F)c34)c12", 21.5),
    ("COc1cc2c(cc1-c1c(C)noc1C)[nH]c1nc(C)nc(Nc3nn(C)c4ccccc34)c12", 0.7),
    ("COc1cc2c(cc1-c1c(C)noc1C)[nH]c1nc(C)nc(Nc3nn(C)c4cc(F)ccc34)c12", 28.4),
]

[1] COc1cc2c(cc1-c1c(C)noc1C)[nH]c1nc(C)nc(Nc3cc(C(C)(C)C)nn3C)c12
[2] COc1cc2c(cc1-c1c(C)noc1C)[nH]c1nc(C)nc(Nc3c(C)c(C4CC4)nn3C)c12
IN: Quick check, higher Ki between 1 and 2 ? Let me know the label of the one you choose.
OUT: 2

This collection of values is drawn from ChEMBL document CHEMBL4145654.
